These data points were gathered from patent US10889616B2.

Test system: BT474
testDescription: cytotoxic activity, IC50 against BT474 cells
Format: cell-based
details: Homo sapiens; BT474 / BT-474 cells
property: log10 IC50 (log10 of the value in nM)
Values reflect log10 of reported IC50 (nM).

Answered examples (8):
{"columns": ["structure", "log10 IC50"],
 "data": [
  ["CCCO[C@H](C[C@H](C(C)C)N(CCC)C(=O)[C@@H](NC(=O)[C@H](CC(C)C)NC)[C@@H](C)CC)c1nc(C(=O)N[C@@H](Cc2ccccc2)C[C@H](C)C(=O)OC)cs1", 1.98],
  ["CCCO[C@H](C[C@H](C(C)C)N(CCC)C(=O)[C@@H](NC(=O)[C@H]1CCCCN1C)[C@@H](C)CC)c1nc(C(=O)N[C@@H](Cc2ccccc2)C[C@H](C)C(=O)NN)cs1", 1.04],
  ["CCCO[C@H](C[C@H](C(C)C)N(CCC)C(=O)[C@@H](NC(=O)[C@H](NC)[C@@H](C)CC)[C@@H](C)CC)c1nc(C(=O)N[C@@H](Cc2ccc(O)cc2)C[C@H](C)C(=O)OC)cs1", -0.30],
  ["CCCO[C@H](C[C@H](C(C)C)N(CCC)C(=O)[C@@H](NC(=O)[C@H]([C@@H](C)CC)N(C)C)[C@@H](C)CC)c1nc(C(=O)N[C@@H](Cc2ccccc2)C[C@H](C)C(=O)OC)cs1", 0.61],
  ["CCCO[C@H](C[C@H](C(C)C)N(CCC)C(=O)[C@@H](NC(=O)[C@H]1CCCCN1C)[C@@H](C)CC)c1nc(C(=O)N[C@@H](Cc2ccccc2)C[C@H](C)C(=O)NNC(=O)OCCOCCN)cs1", 1.81],
  ["CCCO[C@H](C[C@H](C(C)C)N(CCC)C(=O)[C@@H](NC(=O)[C@@H](NC)[C@@H](C)CC)[C@@H](C)CC)c1nc(C(=O)N[C@@H](Cc2ccccc2)C[C@H](C)C(=O)O)cs1", 0.26],
  ["CCCO[C@H](C[C@H](C(C)C)N(CCO)C(=O)[C@@H](NC(=O)[C@H]1CCCCN1C)[C@@H](C)CC)c1nc(C(=O)N[C@@H](Cc2ccc(O)cc2)C[C@H](C)C(=O)O)cs1", 0.23],
  ["CCCO[C@H](C[C@H](C(C)C)N(CCC)C(=O)[C@@H](NC(=O)[C@H]([C@@H](C)CC)N(C)C)[C@@H](C)CC)c1nc(C(=O)N[C@@H](Cc2ccccc2)C[C@H](C)C(=O)O)cs1", -0.01]
]}

// batch mode: one log10 IC50 value per listed entry
1. CCCO[C@H](C[C@H](C(C)C)N(CCC)C(=O)[C@@H](NC(=O)[C@H](CC(C)C)NC)[C@@H](C)CC)c1nc(C(=O)N[C@@H](Cc2ccccc2)C[C@H](C)C(=O)O)cs1
2. CCCO[C@H](C[C@H](C(C)C)N(CCC)C(=O)[C@@H](NC(=O)[C@H](NC)[C@@H](C)CC)[C@@H](C)CC)c1nc(C(=O)N[C@@H](Cc2ccc(O)cc2)C[C@H](C)C(=O)O)cs1
3. CCCO[C@H](C[C@H](C(C)C)N(CCC)C(=O)[C@@H](NC(=O)[C@H]1CCCCN1)[C@@H](C)CC)c1nc(C(=O)N[C@@H](Cc2ccc(O)cc2)C[C@H](C)C(=O)O)cs1
4. CCCO[C@H](C[C@H](C(C)C)N(CCC)C(=O)[C@@H](NC(=O)[C@H]1CCCCN1C)[C@@H](C)CC)c1nc(C(=O)N[C@@H](Cc2ccc(OCCCCN)cc2)C[C@H](C)C(=O)O)cs1

Ans.
1.70
-1.00
0.72
1.71
